Measured inhibition at 35 min, 0.01 µM, listed per entry for reference.
study system: UniProt:Q16678
Sequence (Q16678 whole entry): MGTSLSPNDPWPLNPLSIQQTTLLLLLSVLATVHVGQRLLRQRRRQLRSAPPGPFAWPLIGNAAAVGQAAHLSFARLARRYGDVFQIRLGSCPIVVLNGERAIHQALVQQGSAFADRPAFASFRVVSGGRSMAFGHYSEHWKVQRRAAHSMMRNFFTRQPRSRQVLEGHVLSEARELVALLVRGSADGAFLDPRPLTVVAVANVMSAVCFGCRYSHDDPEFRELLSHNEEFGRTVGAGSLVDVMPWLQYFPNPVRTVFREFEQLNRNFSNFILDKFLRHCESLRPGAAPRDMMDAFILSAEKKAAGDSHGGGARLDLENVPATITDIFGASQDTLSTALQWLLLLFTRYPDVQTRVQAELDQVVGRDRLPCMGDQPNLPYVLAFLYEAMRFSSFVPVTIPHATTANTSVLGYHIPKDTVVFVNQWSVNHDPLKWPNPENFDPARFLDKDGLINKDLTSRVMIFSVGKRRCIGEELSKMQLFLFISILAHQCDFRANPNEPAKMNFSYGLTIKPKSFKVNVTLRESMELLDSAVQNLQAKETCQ
protocol summary: Inhibition of human recombinant CYP1B1 using 7-ethoxyresorufin as substrate at 0.01 uM preincubated with enzyme for 5 mins followed by fluorescent substrate and NADPH addition and measured after 35 mins by EROD assay
Assay type: ADME
test parameters: recombinant CYP1B1, probe 7-ethoxyresorufin, time 40 min

- smiles repr: "CNc1nc(-c2ccc(I)cc2)nc2ccccc12.Cl"
  result units: "%"
  inhibition at 35 min, 0.01 µM: 96.6
- smiles repr: "C#CCOc1ccc(-c2nc(N)c3ccccc3n2)cc1"
  result units: "%"
  inhibition at 35 min, 0.01 µM: 74.4
- smiles repr: "CCCCNc1nc(-c2ccc(I)cc2)nc2ccccc12"
  result units: "%"
  inhibition at 35 min, 0.01 µM: 21.8
- smiles repr: "CCNc1nc(-c2ccc(I)cc2)nc2ccccc12.Cl"
  result units: "%"
  inhibition at 35 min, 0.01 µM: 93.7
- smiles repr: "Nc1nc(-c2ccc(Cl)nc2)nc2ccccc12"
  result units: "%"
  inhibition at 35 min, 0.01 µM: 6.96
- smiles repr: "Nc1nc(-c2ccc(Oc3ccc(Cl)cc3Cl)cc2)nc2ccccc12"
  result units: "%"
  inhibition at 35 min, 0.01 µM: 1.94
- smiles repr: "Ic1ccc(-c2nc(NCc3ccccc3)c3ccccc3n2)cc1"
  result units: "%"
  inhibition at 35 min, 0.01 µM: 2
- smiles repr: "Nc1nc(-c2cccc(F)c2)nc2c1ccc1ccccc12"
  result units: "%"
  inhibition at 35 min, 0.01 µM: 10.5
- smiles repr: "Nc1nc(-c2cccc(Br)c2)nc2ccccc12"
  result units: "%"
  inhibition at 35 min, 0.01 µM: 13.2
- smiles repr: "Cl.Nc1nc(-c2ccc(I)cc2)nc2ccccc12"
  result units: "%"
  inhibition at 35 min, 0.01 µM: 94.5
- smiles repr: "Cc1ccc(-c2nc(N)c3ccccc3n2)cc1"
  result units: "%"
  inhibition at 35 min, 0.01 µM: 89.6
- smiles repr: "COc1cccc(-c2nc(N)c3ccc4ccccc4c3n2)c1"
  result units: "%"
  inhibition at 35 min, 0.01 µM: 3.87

* * *

study system: Cytochrome P450 1A1 (Homo sapiens)
Sequence (P04798 whole entry): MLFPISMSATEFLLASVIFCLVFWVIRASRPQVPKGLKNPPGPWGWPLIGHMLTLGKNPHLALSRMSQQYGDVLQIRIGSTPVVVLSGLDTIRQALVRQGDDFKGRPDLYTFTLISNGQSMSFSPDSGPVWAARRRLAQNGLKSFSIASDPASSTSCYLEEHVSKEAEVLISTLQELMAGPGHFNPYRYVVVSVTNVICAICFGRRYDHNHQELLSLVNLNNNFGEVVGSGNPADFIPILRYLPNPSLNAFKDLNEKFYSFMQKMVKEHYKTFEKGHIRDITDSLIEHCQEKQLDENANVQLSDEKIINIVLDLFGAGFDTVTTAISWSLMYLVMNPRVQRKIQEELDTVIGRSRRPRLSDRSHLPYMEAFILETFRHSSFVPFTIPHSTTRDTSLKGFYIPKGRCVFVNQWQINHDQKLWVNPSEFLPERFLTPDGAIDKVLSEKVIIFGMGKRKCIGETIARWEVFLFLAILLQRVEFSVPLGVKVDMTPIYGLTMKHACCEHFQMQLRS
protocol summary: Inhibition of human recombinant CYP1A1 using 7-ethoxyresorufin as substrate preincubated with enzyme for 5 mins followed by fluorescent substrate and NADPH addition and measured after 15 mins by EROD assay
pIC50: −log10 of the molar value.
Tag: 1.0 if measured pIC50 is not below 7, 0.0 if it is.

- smiles repr: "CNc1nc(-c2ccc(I)cc2)nc2ccccc12"
  assigned label: 1.0
- smiles repr: "Nc1nc(-c2ccc(I)cc2)nc2ccccc12"
  assigned label: 1.0
- smiles repr: "Nc1nc(-c2ccc(Br)cc2)nc2c1ccc1ccccc12"
  assigned label: 1.0
- smiles repr: "CNc1nc(-c2ccc(I)cc2)nc2ccccc12.Cl"
  assigned label: 1.0
- smiles repr: "CCNc1nc(-c2ccc(I)cc2)nc2ccccc12"
  assigned label: 1.0
- smiles repr: "COc1ccc(-c2nc(N)c3ccccc3n2)cc1"
  assigned label: 0.0
- smiles repr: "Cl.FCCNc1nc(-c2ccc(I)cc2)nc2ccccc12"
  assigned label: 1.0
- smiles repr: "Cc1ccc(-c2nc(N)c3ccccc3n2)cc1"
  assigned label: 0.0
- smiles repr: "FCCNc1nc(-c2ccc(I)cc2)nc2ccccc12"
  assigned label: 1.0
- smiles repr: "Cl.Nc1nc(-c2ccc(I)cc2)nc2ccccc12"
  assigned label: 1.0
